- TARGET UNDER TEST: Hfq(2-69:Q41A) (Escherichia coli, UniProt P0A6X3 2-69, Q41A)
- MEASUREMENT DESCRIPTION: fluorescence polarization
OUTCOME MEASURE: Kd (nM)

binder="xtal DNA, 30 bp with three 6-bp A-tracts (dsDNA) DNA 1: CGGCAAAAAACGGCAAAAAACGGCAAAAAA DNA 2: TTTTTTGCCGTTTTTTGCCGTTTTTTGCCG" uom=nM value_observed=300

Data credit: paper PMC7144919
